- target: recombinant HLA-DR402 (HLA-DRA1*01:01, HLA-DRB1*04:02) (Homo sapiens, UniProt P01903+P01911, A100E/A169T/F76Y/K127E/L162R/M171V/N62H/P40V/Q125Y/Q99D/R42H/S133A/S149N/S66Y/V209L/W38E)
- Construct: poly-histidine (C); made in house; host or cells: High Five (Hi5) insect cells, baculovirus (pAcGP67a)
- assay-comment: biochemical
- Type: binding
- conditions: HLA-DR402; estimated from two-point fluorescence polarization competition; Fig5F; read-out: Estimated IC50
Consider the following molecules and their measured IC50 readings.

structure	IC50, µM
CC[C@H](C)[C@H](NC(=O)CNC(=O)[C@H](CCCNC(=N)N)NC(=O)[C@H](CCCCN)NC(=O)[C@@H](NC(=O)[C@H](CCSC)NC(=O)[C@H](CCCNC(=N)N)NC(=O)[C@@H](NC(=O)[C@H](CC(C)C)NC(=O)[C@H](CCC(=O)O)NC(=O)[C@H](CCSC)NC(=O)[C@@H](NC(=O)[C@H](CCSC)NC(=O)[C@@H](N)[C@@H](C)O)C(C)C)C(C)C)[C@@H](C)CC)C(=O)N[C@@H](CC(N)=O)C(=O)O	0.87
CC[C@H](C)[C@H](NC(=O)[C@@H]1CCCN1C(=O)[C@H](Cc1ccc(O)cc1)NC(=O)[C@H](CCCCN)NC(=O)[C@H](CCSC)NC(=O)[C@H](C)NC(=O)[C@H](CCSC)NC(=O)[C@H](CCSC)NC(=O)[C@H](Cc1c[nH]c2ccccc12)NC(=O)[C@H](CCCCN)NC(=O)[C@H](CCSC)NC(=O)[C@H](CCCNC(=N)N)NC(=O)[C@H](CC(C)C)NC(=O)[C@H](C)NC(=O)[C@@H]1CCCN1)C(=O)O	1.31
CC[C@H](C)[C@H](NC(=O)[C@H](CCC(=O)O)NC(=O)[C@@H](N)[C@@H](C)O)C(=O)N[C@H](C(=O)N[C@@H](CCCNC(=N)N)C(=O)N[C@@H](CCSC)C(=O)N[C@@H](CCSC)C(=O)N[C@@H](CCC(=O)O)C(=O)N[C@@H](CO)C(=O)N[C@@H](C)C(=O)N[C@@H](CCCNC(=N)N)C(=O)N1CCC[C@H]1C(=O)N[C@@H](CCC(=O)O)C(=O)N[C@@H](CC(=O)O)C(=O)N[C@H](C(=O)O)C(C)C)[C@@H](C)CC	0.0831
CC[C@H](C)[C@H](NC(=O)[C@H](C)NC(=O)[C@@H](NC(=O)[C@H](C)NC(=O)[C@H](CCCNC(=N)N)NC(=O)[C@H](CCCNC(=N)N)NC(=O)CNC(=O)[C@@H](NC(=O)[C@H](CCSC)NC(=O)[C@@H](NC(=O)[C@H](Cc1ccccc1)NC(=O)[C@H](CCC(=O)O)NC(=O)[C@H](CCC(=O)O)NC(=O)[C@@H](N)Cc1ccc(O)cc1)[C@@H](C)O)C(C)C)[C@@H](C)O)C(=O)N[C@@H](CC(C)C)C(=O)O	4.57

---

- target: recombinant HLA-DR401 (HLA-DRA1*01:01, HLA-DRB1*04:01) (Homo sapiens, UniProt P01903+P01911, A100K/A169T/F76Y/I96L/K127E/L162R/M171V/N62H/P40V/Q125Y/R42H/S133A/S149N/S66Y/V115G/V209L/W38E)
- Construct: poly-histidine (C); made in house; host or cells: High Five (Hi5) insect cells, baculovirus (pAcGP67a)
- assay-comment: biochemical
- Format: binding
Ends that are not written are not given here.
Consider the following sequences and their measured IC50 readings.
reported-metric: IC50

>>> print(df.to_string())
              chain  measured_value
 0  AGEYRNDPNNLAYNG         26.5 nM
 1  AAWVVEHSEVGWEEG         19.4 nM
 2  AAWERENDMLGWEEG         15.2 nM
 3  AAWVPCGDMVSWEEG         26.5 nM
 4  AAWDPDKTVYGWEEG         43.9 nM
 5  AAWDPERTCRAWEEG         31.8 nM
 6  AAWESSTDLVGWEEG         11.9 nM
 7  AAERKMSVLSAWEEG          817 nM
 8  AAANMDTSLPAWEEG          180 nM
 9  AAVADDFSCRGWEEG           47 nM
10  AAGVIDPTMLGWEEG         29.3 nM
11  AAWHNDPACKGWEEG         40.7 nM
12  ASKMRMATPLLMQAG         5170 nM
13  AAWHGEGSQIGWEEG         17.5 nM
